# Measured On: Multidrug resistance-associated protein 1 (ABCC1) (Homo sapiens) (UniProt P33527)
# Sequence (P33527 whole entry, looked up): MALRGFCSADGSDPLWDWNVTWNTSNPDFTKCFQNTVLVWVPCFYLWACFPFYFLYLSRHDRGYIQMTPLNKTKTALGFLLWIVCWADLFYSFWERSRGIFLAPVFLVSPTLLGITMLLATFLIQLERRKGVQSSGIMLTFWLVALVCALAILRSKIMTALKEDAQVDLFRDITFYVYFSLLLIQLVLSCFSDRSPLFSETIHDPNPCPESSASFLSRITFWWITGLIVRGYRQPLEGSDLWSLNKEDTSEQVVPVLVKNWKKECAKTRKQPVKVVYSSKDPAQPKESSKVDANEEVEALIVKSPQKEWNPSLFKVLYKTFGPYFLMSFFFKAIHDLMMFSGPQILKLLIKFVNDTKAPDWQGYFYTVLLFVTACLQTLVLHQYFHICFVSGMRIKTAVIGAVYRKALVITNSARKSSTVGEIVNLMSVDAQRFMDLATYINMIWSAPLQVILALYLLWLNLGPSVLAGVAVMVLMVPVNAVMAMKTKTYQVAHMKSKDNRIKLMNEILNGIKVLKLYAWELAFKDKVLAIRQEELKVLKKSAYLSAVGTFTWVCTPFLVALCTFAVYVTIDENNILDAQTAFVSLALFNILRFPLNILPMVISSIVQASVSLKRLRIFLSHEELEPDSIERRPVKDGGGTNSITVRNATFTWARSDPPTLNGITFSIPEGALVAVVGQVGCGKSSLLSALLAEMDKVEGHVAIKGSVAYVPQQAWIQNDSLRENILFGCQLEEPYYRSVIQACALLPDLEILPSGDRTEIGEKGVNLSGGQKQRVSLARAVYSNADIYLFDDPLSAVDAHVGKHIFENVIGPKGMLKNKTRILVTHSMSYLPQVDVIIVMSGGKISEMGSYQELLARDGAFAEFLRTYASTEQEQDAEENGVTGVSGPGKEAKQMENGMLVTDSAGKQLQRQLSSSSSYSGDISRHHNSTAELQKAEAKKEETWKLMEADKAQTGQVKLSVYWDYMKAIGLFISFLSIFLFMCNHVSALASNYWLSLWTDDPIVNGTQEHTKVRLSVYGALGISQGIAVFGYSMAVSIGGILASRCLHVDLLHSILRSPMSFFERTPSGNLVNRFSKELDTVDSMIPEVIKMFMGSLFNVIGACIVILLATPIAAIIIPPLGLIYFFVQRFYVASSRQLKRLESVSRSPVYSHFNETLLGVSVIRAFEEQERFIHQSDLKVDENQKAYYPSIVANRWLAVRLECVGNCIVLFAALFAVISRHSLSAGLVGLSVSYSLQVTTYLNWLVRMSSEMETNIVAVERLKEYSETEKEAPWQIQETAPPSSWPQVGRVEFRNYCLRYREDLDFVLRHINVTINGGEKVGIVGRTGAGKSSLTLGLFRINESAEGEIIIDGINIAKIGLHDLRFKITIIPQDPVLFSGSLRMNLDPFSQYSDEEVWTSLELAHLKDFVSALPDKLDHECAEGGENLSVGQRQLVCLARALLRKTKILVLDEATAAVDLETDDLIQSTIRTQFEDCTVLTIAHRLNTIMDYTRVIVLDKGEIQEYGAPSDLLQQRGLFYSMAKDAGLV
# Experimental Protocol: In vitro for its inhibitory activity against MRP1-transfected HeLa-T5 cell line in the presence of doxorubicin
Reported Metric: EC50 (µM)

For orientation, consider the following solved cases.
>>> df
                           molecular_string  reported_metric  display_unit  obs_value
0  COc1cc(NC(=O)Cc2cccc(-n3c(=O)c4c(C)onc4c4c(Cl)cccc43)c2)cc(OC)c1             EC50            µM        2.1
1  COc1ccc(NC(=O)Cc2cccc(-n3c(=O)c4c(C)onc4c4c(Cl)cccc43)c2)cc1OC             EC50            µM        4.1
2  COc1cccc(NC(=O)Cc2cccc(-n3c(=O)c4c(C)onc4c4c(Cl)cccc43)c2)c1             EC50            µM        1.8
3  Cc1onc2c1c(=O)n(-c1cccc(CC(=O)Nc3ccc4c(c3)OCO4)c1)c1cccc(Cl)c21             EC50            µM          4
4  COc1cc(CNCc2cccc(-n3c(=O)c4c(C)onc4c4c(Cl)cccc43)c2)cc(OC)c1OC             EC50            µM       1.77

a: COc1cc(OCCc2cccc(-n3c(=O)c4c(C)onc4c4c(Cl)cccc43)c2)cc(OC)c1OC
b: Cc1cc(C(=O)NCc2cccc(-n3c(=O)c4c(C)onc4c4c(Cl)cccc43)c2)no1
Smaller EC50 value, a vs b ? Output the label that corresponds to your choice. a
(a: 1.47 µM, b: 7.9 µM)

A: Cc1cc(C(=O)N[C@@H]2c3cc(-n4c(=O)c5c(C)onc5c5c(Cl)cccc54)ccc3C[C@H]2O)no1
B: COc1cc(N(C)C(=O)Cc2cccc(-n3c(=O)c4c(C)onc4c4c(Cl)cccc43)c2)cc(OC)c1OC
Lab note: check whether A or B shows the higher recorded EC50. Kindly state the label of the option you pick. A
(A: 10 µM, B: 0.64 µM)

* * *

# Measured On: Multidrug resistance-associated protein 1 (ABCC1) (Homo sapiens) (UniProt P33527)
# Experimental Protocol: In vitro for its inhibitory activity against MRP1-transfected HeLa-T5 cell line in the presence of doxorubicin
pEC50: −log10 of the molar value.
pEC50: recorded values

Solved entries (count: 4):
>>> df
                           molecular_string                               measured_on  reported_metric  obs_value
0  COc1ccc(NC(=O)Cc2cccc(-n3c(=O)c4c(C)onc4c4c(Cl)cccc43)c2)cc1  Multidrug resistance-associated protein 1 (ABCC1) (Homo sapiens) (UniProt P33527)            pEC50     < 5.00
1  Cc1onc2c1c(=O)n(-c1cccc(CC(=O)Nc3ccc(S(N)(=O)=O)cc3)c1)c1cccc(Cl)c21  Multidrug resistance-associated protein 1 (ABCC1) (Homo sapiens) (UniProt P33527)            pEC50     < 5.00
2  Cc1onc2c1c(=O)n(-c1cccc(CC(=O)Nc3ccc(F)cc3)c1)c1cccc(Cl)c21  Multidrug resistance-associated protein 1 (ABCC1) (Homo sapiens) (UniProt P33527)            pEC50       5.49
3  COC(=O)c1ccc(NC(=O)Cc2cccc(-n3c(=O)c4c(C)onc4c4c(Cl)cccc43)c2)cc1  Multidrug resistance-associated protein 1 (ABCC1) (Homo sapiens) (UniProt P33527)            pEC50     < 5.00

Query compound follows.
Any idea what its pEC50 is? The compound is `Cc1onc2c1c(=O)n(-c1cccc(CC(=O)Nc3ccc(C(C)(C)C)cc3)c1)c1cccc(Cl)c21` < 5.00
